Data provenance is patent US10517862B2.

Target: D3 receptor (Homo sapiens, UniProt P35462)
Construct: expressed in transfected cells; host or cells: HEK-293
Sequence (P35462 whole entry): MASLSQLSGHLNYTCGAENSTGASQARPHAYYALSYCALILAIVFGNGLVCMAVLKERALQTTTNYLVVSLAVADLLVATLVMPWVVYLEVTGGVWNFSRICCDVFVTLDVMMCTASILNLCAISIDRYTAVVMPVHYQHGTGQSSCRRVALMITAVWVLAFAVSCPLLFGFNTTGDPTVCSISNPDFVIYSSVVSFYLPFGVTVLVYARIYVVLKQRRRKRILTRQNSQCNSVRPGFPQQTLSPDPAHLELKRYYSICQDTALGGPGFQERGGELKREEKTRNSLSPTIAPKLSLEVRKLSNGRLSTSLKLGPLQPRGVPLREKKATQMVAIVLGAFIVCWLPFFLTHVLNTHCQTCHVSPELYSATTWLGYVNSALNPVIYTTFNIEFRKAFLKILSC
Assay: D3 receptor assay ([3H]-Spiperone, HEK-293 cells)
Assay type: binding
Settings: test compound final concentration 10 μmol/L; [3H]-Spiperone; HEK-293 cells; read-out: D3 Inhibition rate (%)
observationType: inhibition at 10 µM (%)
Give your result in % as a bare value.

Quick one: give measured inhibition at 10 µM for O=C(CCCCN1CCC(c2noc3cc(F)ccc23)CC1)c1cc2c3c(c1)CCN3C(=O)CC2
98.1

Provide one value: measured inhibition at 10 µM of O=C1CCc2cc(CCCCN3CCC(c4noc5cc(F)ccc45)CC3)cc3c2N1CCC3
98.1

Tell me its inhibition at 10 µM given O=C1CCc2cc(C(O)CCCN3CCC(c4noc5cc(F)ccc45)CC3)cc3c2N1CCC3 (centres unmarked) as the entry.
98.5

Please report inhibition at 10 µM for the following compound: CC1CC(=O)N2CCCc3cc(CCCCN4CCC(c5noc6cc(F)ccc56)CC4)cc1c32 (centres unmarked)
80.2

Indicate its recorded inhibition at 10 µM; the compound in question is CC1CC(=O)N2CCCc3cc(C(=O)CCCN4CCC(c5noc6cc(F)ccc56)CC4)cc1c32 (centres unmarked)
86

Read off the recorded inhibition at 10 µM for O=C1CCc2cc(C(O)CCN3CCC(c4noc5cc(F)ccc45)CC3)cc3c2N1CC3 (centres unmarked)
94.4

Kindly indicate its recorded inhibition at 10 µM. Item: O=C(CCCN1CCC(c2noc3cc(F)ccc23)CC1)c1cc2c3c(c1)CCN3C(=O)CC2
99.9

Give inhibition at 10 µM for O=C(CCCN1CCC(c2noc3cc(F)ccc23)CC1)c1cc2c3c(c1F)CCC(=O)N3CC2
91.2

* * *

Assay: Catalepsy assay in mice
Settings: both sexes, Kunming, mouse, in vivo, po, bar test at 30, 60, 90 min
observationType: ED50 (mg/kg)
Response body: numeric value in mg/kg, unit text excluded.

Provide measured ED50 value, entry: O=C(CCN1CCC(c2noc3cc(F)ccc23)CC1)c1cc2c3c(c1)CCC(=O)N3CCC2
3.8

State its ED50 for this compound: O=C(CCN1CCC(c2noc3cc(F)ccc23)CC1)c1cc2c3c(c1)CCN3C(=O)CC2
8.45

Consider the compound O=C(CCCN1CCC(c2noc3cc(F)ccc23)CC1)c1cc2c3c(c1)CCN3C(=O)CC2 and give its recorded ED50.
50

Name the recorded ED50 of the compound listed here: O=C1CCc2cc(CCCCN3CCC(c4noc5cc(F)ccc45)CC3)cc3c2N1CCC3
24.1

* * *

Assay: in vivo
Details: both sexes, KM, mouse, in vivo, po
observationType: LD50 at 7 days

Provide one value: measured LD50 at 7 days of O=C(CCCN1CCC(c2noc3cc(F)ccc23)CC1)c1cc2c3c(c1)CCN3C(=O)CC2 [Compound 15]
> 2000 mg/kg

* * *

Target: D3 receptor (Homo sapiens)
Construct: expressed in transfected cells; host or cells: HEK-293
Assay: D3 receptor assay ([3H]-Spiperone, HEK-293 cells)
Type: binding
Settings: test compound final concentration 10 μmol/L; [3H]-Spiperone; HEK-293 cells; read-out: D3 Inhibition rate (%)
Experimental: Then the cells were centrifuged at 1000 rpm for 5 min, the supernatant was discarded, and the cell pellets was collected and stored in a −20° C. fridge for reservation. It was re-suspended with Tris-Cl (pH 7.4) when the assay was performed. Tris was divided into aliquots by Genetimes Technology Inc. […]
Label 0 if inhibition at 10 µM falls below 90%; label 1 in every other case.

I'd appreciate it if you could say whether O=C1CCc2cc(C(O)CCN3CCC(c4noc5cc(F)ccc45)CC3)cc3c2N1CCC3 (centres unmarked) [Compound 3] has inhibition at 10 µM at least equal to 90%.
1

Is inhibition at 10 µM at least 90%? Consider O=C(CN1CCC(c2noc3cc(F)ccc23)CC1)c1cc2c3c(c1)CCN3C(=O)CC2 [Compound 11]
0

inhibition at 10 µM >= 90% for O=C(CCCN1CCC(c2noc3cc(F)ccc23)CC1)c1cc2c3c(c1)CCC(=O)N3CCC2 [Compound 5] ?
1

Could you verify whether the entry O=C1CCc2cc(CCCN3CCC(c4noc5cc(F)ccc45)CC3)cc3c2N1CC3 [Compound 14] shows inhibition at 10 µM of no less than 90%?
1

Is the recorded value of inhibition at 10 µM equal to or greater than 90% for this compound? O=C(CCCCN1CCC(c2noc3cc(F)ccc23)CC1)c1cc2c3c(c1)CCC(=O)N3CCC2 [Compound 8]
0

Does O=C(CCN1CCC(c2noc3cc(F)ccc23)CC1)c1cc2c3c(c1)CCC(=O)N3CCC2 [Compound 2] have a reported inhibition at 10 µM of at least 90%?
0
